- Tested on: Candida spp.
- EXPERIMENT: Broth microdilution MIC, yeast (Example 13), group statement and QC
- Format: cell-based
- EXPERIMENTAL CONTEXT: C. parapsilosis ATCC 22019; 24 hr; comparators, single value
*1 amine or outer side, *2 acyl side, *3 side chain or, on linkers, in order; H or OH if unused. Where a SMILES comes first, the peptide text is derived from it. Bridges are numbered along the chain shown (N, C = ends). [ ]: non-standard residue; d: D form. The star is where a group is joined. hTyr(3S-OH,4S-OH,3'-OSO3H) = N[C@H](C(=O)O)[C@H](O)[C@@H](O)c1ccc(O)c(OS(=O)(=O)O)c1; Orn(4R-OH,5R-OH) = O=C([C@H](C[C@@H](O)[C@@H](O)N[*:3])N[*:1])[*:2]; Pro(3S-OH,4S-Me) = C[C@H]1CN[C@H](C(=O)O)[C@H]1O; X1 = CCCCCOc1ccc(-c2cc(-c3ccc(C(=O)*)cc3)no2)cc1; Gln(3R-OH) = NC(=O)C[C@@H](O)[C@H](N)C(=O)O; Hyp = O=C(O)[C@@H]1C[C@@H](O)CN1
Would you kindly list MIC 24 hr for each of these compounds?
Numbers only here, please. The scale is µg/mL.

Q. Hi! What's the reported MIC 24 hr for CC[C@H](C)C[C@H](C)CCCCCCCCC(=O)N[C@H]1C[C@@H](O)[C@@H](NCCN)NC(=O)[C@@H]2[C@@H](O)CCN2C(=O)[C@H]([C@H](O)CCN)NC(=O)[C@H]([C@H](O)[C@@H](O)c2ccc(O)cc2)NC(=O)[C@@H]2C[C@@H](O)CN2C(=O)[C@H]([C@@H](C)O)NC1=O on Candida spp.?
A. 0.25

Q. Hi! What's the reported MIC 24 hr for C[C@@H]1[C@H](O)[C@@H](C)/C=C/C=C/C=C/C=C/C=C/C=C/C=C/[C@H](O[C@@H]2O[C@H](C)[C@@H](O)[C@H](N)[C@@H]2O)C[C@@H]2O[C@](O)(C[C@@H](O)C[C@@H](O)[C@H](O)CC[C@@H](O)C[C@@H](O)CC(=O)O[C@H]1C)C[C@H](O)[C@H]2C(=O)O on Candida spp.?
A. 0.5

Q. Hi! What's the reported MIC 24 hr for OC(Cn1cncn1)(Cn1cncn1)c1ccc(F)cc1F [fluconazole, reference compound] on Candida spp.?
A. 1

Q. Hi! What's the reported MIC 24 hr for CCCCCOc1ccc(-c2cc(-c3ccc(C(=O)N[C@H]4C[C@@H](O)[C@@H](O)NC(=O)[C@@H]5[C@@H](O)[C@@H](C)CN5C(=O)[C@H]([C@H](O)CC(N)=O)NC(=O)[C@H]([C@H](O)[C@@H](O)c5ccc(O)c(OS(=O)(=O)O)c5)NC(=O)[C@@H]5C[C@@H](O)CN5C(=O)[C@H]([C@@H](C)O)NC4=O)cc3)no2)cc1 [Micafungin] (X1-[Orn(4R-OH,5R-OH)]T[Hyp][hTyr(3S-OH,4S-OH,3'-OSO3H)][Gln(3R-OH)][Pro(3S-OH,4S-Me)]; lactam 1-C) on Candida spp.?
A. 0.5

* * *

- Test system: Klebsiella pneumoniae
- EXPERIMENT: Broth microdilution MIC (Example 12)
- EXPERIMENTAL CONTEXT: Klebsiella pneumoniae CDC 112, KPC
Would you kindly list MIC for each of these compounds?
Numbers only here, please. The scale is µg/mL.

Q. Hi! What's the reported MIC for NCC[C@H](O)C(=O)N[C@@H]1C[C@H](N)[C@@H](O[C@H]2O[C@H](CN)[C@@H](O)[C@H](O)[C@H]2O)[C@H](O)[C@H]1O[C@H]1O[C@H](CO)[C@@H](O)[C@H](N)[C@H]1O [AMK] on Klebsiella pneumoniae?
A. 16

Q. Hi! What's the reported MIC for C[C@H]1COc2c(N3CCN(C)CC3)c(F)cc3c(=O)c(C(=O)O)cn1c23 [LVX] on Klebsiella pneumoniae?
A. 4

* * *

Would you kindly list MIC for each of these compounds?
- System: vancomycin-intermediate Staphylococcus aureus (VISA)
- EXPERIMENT: Broth microdilution MIC (Example 12)
- EXPERIMENTAL CONTEXT: Staphylococcus aureus NRS 3

Q. Hi! What's the reported MIC for CCC[C@@H]1C[C@@H](C(=O)N[C@@H]([C@H]2O[C@H](SC)[C@H](O)[C@@H](O)[C@H]2O)[C@H](C)Cl)N(C)C1 on vancomycin-intermediate Staphylococcus aureus (VISA)?
A. >8 µg/mL

Q. Hi! What's the reported MIC for CC(=O)NC[C@H]1CN(c2ccc(N3CCOCC3)c(F)c2)C(=O)O1 on vancomycin-intermediate Staphylococcus aureus (VISA)?
A. 1 µg/mL

Q. Hi! What's the reported MIC for C[C@H]1COc2c(N3CCN(C)CC3)c(F)cc3c(=O)c(C(=O)O)cn1c23 on vancomycin-intermediate Staphylococcus aureus (VISA)?
A. >8 µg/mL

Q. Hi! What's the reported MIC for CN[C@H](CC(C)C)C(=O)N[C@H]1C(=O)N[C@@H](CC(N)=O)C(=O)N[C@H]2C(=O)N[C@H]3C(=O)N[C@H](C(=O)N[C@H](C(=O)O)c4cc(O)cc(O)c4-c4cc3ccc4O)[C@H](O)c3ccc(c(Cl)c3)Oc3cc2cc(c3O[C@@H]2O[C@H](CO)[C@@H](O)[C@H](O)[C@H]2O[C@H]2C[C@](C)(N)[C@H](O)[C@H](C)O2)Oc2ccc(cc2Cl)[C@H]1O on vancomycin-intermediate Staphylococcus aureus (VISA)?
A. 8 µg/mL

Q. Hi! What's the reported MIC for CCCCCCCCCC(=O)NC(Cc1c[nH]c2ccccc12)C(=O)NC(CC(N)=O)C(=O)NC(CC(=O)O)C(=O)NC1C(=O)NCC(=O)NC(CCCN)C(=O)NC(CC(=O)O)C(=O)NC(C)C(=O)NC(CC(=O)O)C(=O)NCC(=O)NC(CO)C(=O)NC(C(C)CC(=O)O)C(=O)NC(CC(=O)c2ccccc2N)C(=O)OC1C (centres unmarked) on vancomycin-intermediate Staphylococcus aureus (VISA)?
A. 1 µg/mL

* * *

Would you kindly list MIC for each of these compounds?
- Test system: Acinetobacter baumannii
- EXPERIMENT: Broth microdilution MIC (Example 12)
- EXPERIMENTAL CONTEXT: Acinetobacter baumannii CDC 275, ESBL/OXA

Q. What value of measured MIC is listed for C[C@@H](O)[C@H]1C(=O)N2C(C(=O)O)=C(S[C@@H]3CN[C@H](C(=O)N(C)C)C3)[C@H](C)[C@H]12 ?
A. >8 µg/mL

Q. What value of measured MIC is listed for CC(C)(O/N=C(\C(=O)N[C@@H]1C(=O)N2C(C(=O)[O-])=C(C[n+]3ccccc3)CS[C@H]12)c1csc(N)n1)C(=O)O ?
A. >64 µg/mL

Q. What value of measured MIC is listed for NCC[C@H](O)C(=O)N[C@@H]1C[C@H](N)[C@@H](O[C@H]2O[C@H](CN)[C@@H](O)[C@H](O)[C@H]2O)[C@H](O)[C@H]1O[C@H]1O[C@H](CO)[C@@H](O)[C@H](N)[C@H]1O ?
A. >64 µg/mL

Q. What value of measured MIC is listed for C[C@H]1COc2c(N3CCN(C)CC3)c(F)cc3c(=O)c(C(=O)O)cn1c23 ?
A. 4 µg/mL
